Measured TetR repression strength, listed per entry.
# targetSystem: TetR (class B, Tn10) (UniProt P04483)
# Sequence (P04483 whole entry): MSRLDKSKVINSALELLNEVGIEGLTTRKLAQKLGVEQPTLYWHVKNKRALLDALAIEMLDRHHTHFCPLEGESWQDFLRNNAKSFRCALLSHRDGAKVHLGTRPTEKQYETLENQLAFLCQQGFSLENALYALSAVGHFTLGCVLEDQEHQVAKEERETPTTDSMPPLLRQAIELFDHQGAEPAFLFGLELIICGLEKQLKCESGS
# assayExplanation: TetR repression strength (sort-seq, GFP reporter) (relative to tetO2 = 1); higher = stronger repression
# testContext: E. coli
The full ranking holds about 18,000 sequences; the median of “TetR repression strength (sort-seq, GFP reporter)” is about 0.23, and the highest 2% start at about 0.68. The entries come from a sample that favours the highest values as a whole.
Give only the figure.

- monomerSequence: "TCCCGCTTAGTTACGGAGA"
  TetR repression strength: 1.2

## Task Identify measured TetR repression strength corresponding to `TCCCGCTGAGTTACGGAGA`
## Result 0.652

## Task Identify measured TetR repression strength corresponding to `TCCCCAACAGTTAGGGAGA`
## Result 0.218

## Task Identify measured TetR repression strength corresponding to `TCCCCAGAAGTCGTTGAGA`
## Result 0.061

## Task Identify measured TetR repression strength corresponding to `TCCCCAATAGTTAGGGAGA`
## Result 0.699

## Task Identify measured TetR repression strength corresponding to `TCCCCTGGAGTCCTGGAGA`
## Result 0.439

## Task Identify measured TetR repression strength corresponding to `TCCCTCACAGTCAGTGAGA`
## Result 0.302

---

# targetSystem: TetR (class B, Tn10)
# assayExplanation: TetR repression strength (sort-seq, GFP reporter) (relative to tetO2 = 1); higher = stronger repression
# testContext: E. coli
Over roughly 18,000 sequences, “TetR repression strength (sort-seq, GFP reporter)” has its median near 0.23; the highest 2% begin near 0.68. The entries come from a sample that favours the highest values as a whole.
property: TetR repression strength

- monomerSequence: "TCCCAGCTAGTGAGTGAGA"
  TetR repression strength: 0.716
- monomerSequence: "TCCCGACGAGTAGTGGAGA"
  TetR repression strength: 0.171
- monomerSequence: "TCCCTGCTAGTGAAGGAGA"
  TetR repression strength: 0.649
- monomerSequence: "TCCCGTCGAGTAGGGGAGA"
  TetR repression strength: 0.127
- monomerSequence: "TCCCGTGCAGTCATTGAGA"
  TetR repression strength: 0.276

## Task Identify measured TetR repression strength corresponding to `TCCCATGGAGTCGGTGAGA`
## Result 0.0966

## Task Identify measured TetR repression strength corresponding to `TCCCTGAGAGTTCGCGAGA`
## Result 0.0305

## Task Identify measured TetR repression strength corresponding to `TCCCTGTGAGTGGACGAGA`
## Result 0.227

---

# targetSystem: TetR (class B, Tn10) (UniProt P04483)
# assayExplanation: TetR repression strength (sort-seq, GFP reporter) (relative to tetO2 = 1); higher = stronger repression
# testContext: E. coli
In all, about 18,000 sequences were measured (“TetR repression strength (sort-seq, GFP reporter)”: median about 0.23, highest 2% from about 0.68 on). The list comes from a sample in which the highest values are over-represented; it also holds close analogues and randomly drawn sequences.
Class Met: TetR repression strength at least 0.3. Class Not met: TetR repression strength below 0.3.

Example entries and their recorded answers appear below.
- monomerSequence: "TCCCGGACAGTGCCAGAGA"
  classification: "Met"
- monomerSequence: "TCCCGTTCAGTGCTTGAGA"
  classification: "Met"
- monomerSequence: "TCCCCACTAGTGGCGGAGA"
  classification: "Met"

## Task Check this sequence for TetR repression strength at or above 0.3: `TCCCCTGGAGTTGGGGAGA`
## Result Met

Cited source: a collection of fitness landscapes (doi:10.1038/s41467-024-54723-y)
